# Tested on: BXPC-3
# Experiment: Antiproliferative activity against human BXPC-3 cells assessed as cell growth inhibition by MTT assay
# Format: functional, cell-based
Result Type: IC50 (nM)
One number for each entry, in nM.

- Molecule: "CC(C)(C)c1[nH]cnc1/C=c1\\[nH]c(=O)/c(=C/c2ccc3cc[nH]c3c2)[nH]c1=O"
  Unit String: "nM"
  IC50: 3770
- Molecule: "Cc1ccc(F)cc1C(=O)Nc1cccc(/C=c2\\[nH]c(=O)/c(=C/c3nc[nH]c3C(C)(C)C)[nH]c2=O)c1"
  Unit String: "nM"
  IC50: 1590
- Molecule: "CC(=O)Nc1cccc(/C=c2\\[nH]c(=O)/c(=C/c3nc[nH]c3C(C)(C)C)[nH]c2=O)c1"
  Unit String: "nM"
  IC50: 540

Dear colleague, could you please provide IC50 for the molecules listed below?
1. CC(C)(C)c1[nH]cnc1/C=c1\[nH]c(=O)/c(=C/c2ccc3[nH]ccc3c2)[nH]c1=O
2. Cc1ccc(C(=O)Nc2cccc(/C=c3\[nH]c(=O)/c(=C/c4nc[nH]c4C(C)(C)C)[nH]c3=O)c2)c(C)c1
3. CC(C)C(=O)Nc1cccc(/C=c2\[nH]c(=O)/c(=C/c3nc[nH]c3C(C)(C)C)[nH]c2=O)c1
4. COc1ccc(C(=O)Nc2cccc(/C=c3\[nH]c(=O)/c(=C/c4nc[nH]c4C(C)(C)C)[nH]c3=O)c2)cc1
5. CC(C)(C)c1[nH]cnc1/C=c1\[nH]c(=O)/c(=C/c2cccc(NC(=O)C3CCCN3)c2)[nH]c1=O (stereo not drawn)
6. CC(C)(C)c1[nH]cnc1/C=c1\[nH]c(=O)/c(=C/c2cccc(NC(=O)C3CCC3)c2)[nH]c1=O
7. CC(C)(C)c1[nH]cnc1/C=c1\[nH]c(=O)/c(=C/c2cccc(NC(=O)C3CCCCC3)c2)[nH]c1=O

Marked response:
1: 6.7; 2: 2590; 3: 1460; 4: 1510; 5: 22.9; 6: 585; 7: 1020

###

Please provide measured IC50 for the entries that follow.
# System: BXPC-3
# Experiment: Antiproliferative activity against human BXPC-3 cells assessed as cell growth inhibition by MTT assay
# Format: functional, cell-based
One number for each entry, in nM.

Below are worked cases with known answers.
- Compound: "CC(C)(C)c1[nH]cnc1/C=c1\\[nH]c(=O)/c(=C/c2cccc(NC(=O)Cc3ccccc3)c2)[nH]c1=O"
  Unit String: "nM"
  Value: 1700
- Compound: "CC(C)[C@H](CN)C(=O)Nc1cccc(/C=c2\\[nH]c(=O)/c(=C/c3nc[nH]c3C(C)(C)C)[nH]c2=O)c1 (stereo in doubt)"
  Unit String: "nM"
  Value: 31.4
- Compound: "CC(C)(C)c1[nH]cnc1/C=c1\\[nH]c(=O)/c(=C/c2cccc(NC(=O)CN)c2)[nH]c1=O"
  Unit String: "nM"
  Value: 272
- Compound: "CC(C)(C)c1[nH]cnc1/C=c1\\[nH]c(=O)/c(=C/c2cc3ccccc3[nH]2)[nH]c1=O"
  Unit String: "nM"
  Value: 2770

Dear colleague, could you please provide IC50 for the compounds listed below?
1. CC(C)(C)c1[nH]cnc1/C=c1\[nH]c(=O)/c(=C/c2cccc(NC(=O)C3CCCC3)c2)[nH]c1=O
2. CC(C)(C)c1[nH]cnc1/C=c1\[nH]c(=O)/c(=C/c2cccc3cc[nH]c23)[nH]c1=O
3. CC(C)(C)C(=O)Nc1cccc(/C=c2\[nH]c(=O)/c(=C/c3nc[nH]c3C(C)(C)C)[nH]c2=O)c1
4. CC(C)(C)c1[nH]cnc1/C=c1\[nH]c(=O)/c(=C/c2cccc(NC(=O)C3CC3)c2)[nH]c1=O
5. CC(C)(C)c1[nH]cnc1/C=c1\[nH]c(=O)/c(=C/c2cccc(NC(=O)c3ccccc3)c2)[nH]c1=O

Marked response:
1. 3130
2. 9.5
3. 1890
4. 1570
5. 398

Dear colleague, could you please provide IC50 for the compounds listed below?
1. CCC(=O)Nc1cccc(/C=c2\[nH]c(=O)/c(=C/c3nc[nH]c3C(C)(C)C)[nH]c2=O)c1
2. CC(C)(C)c1[nH]cnc1/C=c1\[nH]c(=O)/c(=C/c2cccc(NC(=O)c3cc4ccccc4[nH]3)c2)[nH]c1=O
3. CC(C)(C)c1[nH]cnc1/C=c1\[nH]c(=O)/c(=C/c2c[nH]c3ccccc23)[nH]c1=O
4. CC(C)(C)c1[nH]cnc1/C=c1\[nH]c(=O)/c(=C/c2ccccc2)[nH]c1=O
5. CC(C)(C)c1[nH]cnc1/C=c1\[nH]c(=O)/c(=C/c2cccc(NC(=O)c3ccccn3)c2)[nH]c1=O
6. CC(C)(C)c1[nH]cnc1/C=c1\[nH]c(=O)/c(=C/c2cccc(NC(=O)c3cccnc3)c2)[nH]c1=O
7. CC(C)(C)c1[nH]cnc1/C=c1\[nH]c(=O)/c(=C/c2cccc3[nH]ccc23)[nH]c1=O

Marked response:
1. 598
2. 1760
3. 13.7
4. 18.4
5. 520
6. 1600
7. 16.7
